Below: a set of entries, each annotated with reported AChE %age inhibition.
- System tested: acetyl cholinesterase (AChE) (Homo sapiens)
- Sequence (P22303 32-614, species assumed): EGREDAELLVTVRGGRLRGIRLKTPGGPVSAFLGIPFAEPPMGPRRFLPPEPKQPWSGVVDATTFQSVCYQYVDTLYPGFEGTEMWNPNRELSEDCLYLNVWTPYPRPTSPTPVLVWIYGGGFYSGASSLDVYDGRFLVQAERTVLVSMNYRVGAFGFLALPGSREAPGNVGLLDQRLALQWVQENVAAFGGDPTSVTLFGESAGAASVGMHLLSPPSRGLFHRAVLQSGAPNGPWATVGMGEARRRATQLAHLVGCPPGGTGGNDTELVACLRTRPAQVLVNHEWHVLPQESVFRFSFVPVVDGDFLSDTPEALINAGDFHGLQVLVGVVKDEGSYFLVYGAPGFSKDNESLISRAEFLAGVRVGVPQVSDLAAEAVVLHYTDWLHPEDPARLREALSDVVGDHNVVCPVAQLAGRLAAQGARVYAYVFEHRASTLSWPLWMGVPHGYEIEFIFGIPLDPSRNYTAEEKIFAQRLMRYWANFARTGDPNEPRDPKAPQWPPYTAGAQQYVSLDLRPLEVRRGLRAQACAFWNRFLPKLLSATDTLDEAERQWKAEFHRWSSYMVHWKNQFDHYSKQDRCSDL
- Run conditions: test concentration not given
Reported property: AChE %age inhibition (% ^c)

In [3]: df
Out[3]:
                                smiles_code  recorded_measurement
0    Fc1ccccc1Nc1nnc(-c2ccc(C(F)(F)F)cc2)o1                 37.12
1  FC(F)(F)c1ccc(-c2nnc(Nc3ccc(Br)cc3)o2)cc1                 44.56
2  N#Cc1cccc(Nc2nnc(-c3ccc(C(F)(F)F)cc3)o2)c1                 42.32
3         Cc1ccc(Nc2nnc(-c3ccncc3)o2)c(C)c1                 39.65
4  N#Cc1cccc(Nc2nnc(Cc3ccccc3C(F)(F)F)o2)c1                 31.34
